Tested on: HCV GT1a replicon
experimentalDetails: HCV replicon assay (Huh-7 cells stably transfected with HCV GT1a replicon; luciferase or NEO gene qPCR readout)
Type: cell-based
measurementConditions: Hepatitis C virus, HCV 1a genotype replicon, 72 hours
# reported EC50; entries follow
assayReadout: EC50 (nM)

INSERT INTO measurements (compound, readoutnumber) VALUES
  ('COC(=O)N[C@H](C(=O)N1C[C@@H](C)C[C@H]1c1ncc(-c2ccc(-c3ccc(-c4ccc5nc([C@@H]6C[C@H](C)CN6C(=O)[C@@H](NC(=O)OC)C(C)C)[nH]c5c4)c4c3C3CCC3C4)cc2)[nH]1)C(C)C (stereo partly drawn)', 0.003),
  ('COC(=O)N[C@H](C(=O)N1CCC[C@H]1c1ncc(-c2ccc(-c3ncc(-c4ccc5nc([C@@H]6CCCN6C(=O)[C@@H](NC(=O)OC)C(C)C)[nH]c5c4)c4c3C3CCC3C4)cc2)[nH]1)C(C)C (stereo partly drawn)', 0.065),
  ('COC(=O)N[C@H](C(=O)N1CCCC1c1nc2ccc(-c3ccc(-c4ccc5nc([C@@H]6CCCN6C(=O)[C@@H](NC(=O)OC)C(C)C)[nH]c5c4)c4c3C3C(=O)CCC3C4)cc2[nH]1)C(C)C (stereo partly drawn)', 0.063),
  ('COC(=O)N[C@H](C(=O)N1CCC[C@H]1c1ncc(-c2ccc(-c3ccc(-c4ccc5nc([C@@H]6CCCN6C(=O)[C@@H](NC(=O)OC)C(C)C)[nH]c5c4)c4c3CC3CCC43)c3cnoc23)[nH]1)C(C)C (stereo partly drawn)', 0.207),
  ('COC(=O)N[C@H](C(=O)N1CCC[C@H]1c1nc2ccc(-c3ccc(-c4ccc(-c5cnc([C@@H]6C7CCC(C7)N6C(=O)[C@@H](NC(=O)OC)C(C)C)[nH]5)cc4)c4c3C3CCC3C4)cc2[nH]1)C(C)C (stereo partly drawn)', 0.071),
  ('COC(=O)N[C@H](C(=O)N1CCC[C@H]1c1cc(=O)c2cc(-c3ccc(-c4ccc(-c5cnc([C@@H]6CCCN6C(=O)[C@@H](NC(=O)OC)c6ccccc6)[nH]5)cc4)c4c3C3(C)CCC3C4)ccc2[nH]1)c1ccccc1 (stereo partly drawn)', 0.211),
  ('COC(=O)N[C@H](C(=O)N1CCC[C@H]1c1ncc(-c2ccc(-c3ccc(-c4ccc5nc([C@@H]6CCCN6C(=O)[C@@H](NC(=O)OC)C(C)C)[nH]c5c4)c4c3C3CCC3C4)nc2)[nH]1)C(C)C (stereo partly drawn)', 0.066),
  ('COC(=O)N[C@H](C(=O)N1CCC[C@H]1C1=Nc2cc(-c3ccc(C#Cc4cnc([C@@H]5CCCN5C(=O)[C@@H](NC(=O)OC)C5CCCCC5)[nH]4)c4c3CC3C(=O)CC43)ccc2C(C)(C)N1)C1CCCCC1 (stereo partly drawn)', 7.55),
  ('COC(=O)N[C@H](C(=O)N1C2CC2C[C@H]1c1ncc(-c2ccc(-c3ccc(-c4ccc5nc([C@@H]6CC7CC7N6C(=O)[C@@H](NC(=O)OC)C(C)C)[nH]c5c4)c4c3C3CCC3C4)cc2)[nH]1)C(C)C (stereo partly drawn)', 0.083);

====

Tested on: HCV GT1a replicon
experimentalDetails: HCV replicon assay (Huh-7 cells stably transfected with HCV GT1a replicon; luciferase or NEO gene qPCR readout)
Type: cell-based
measurementConditions: Hepatitis C virus, HCV 1a genotype replicon, 72 hours
assayReadout: EC50 (nM)

INSERT INTO assay_data (compound, testsystem, readoutnumber) VALUES
  ('COC(=O)N[C@@H](C)C(=O)N1CCCC1C1=Nc2cc(-c3ccc(-c4cnc([C@@H]5CCCN5C(=O)[C@H](C)NC(=O)OC)[nH]4)c4c3CC3CCC43)ccc2C2(COC2)N1 (stereo partly shown)', 'HCV GT1a replicon', 1.04),
  ('CC(C)[C@H](NC(=O)OC(C)(C)C)C(=O)N1CCC[C@H]1c1ncc(-c2ccc(-c3ccc(-c4cnc([C@@H]5CCCN5C(=O)[C@@H](NC(=O)OC(C)(C)C)C(C)C)[nH]4)c4c3C3CCC3C4)cc2)[nH]1 (stereo partly shown)', 'HCV GT1a replicon', 4.33),
  ('COC(=O)NC(C(=O)N1CCCC1c1nc2ccc(-c3ccc(-c4ccc(-c5cnc(C6C7CCC(C7)N6C(=O)C(NC(=O)OC)C(C)C)[nH]5)cc4)c4c3C3CCC3C4)cc2[nH]1)C(C)C (stereo not shown)', 'HCV GT1a replicon', 0.935),
  ('COC(=O)N[C@H](C(=O)N1CC2(C[C@H]1c1ncc(-c3ccc(-c4ccc(-c5ccc6nc([C@@H]7CCCN7C(=O)[C@@H](NC(=O)OC)C(C)C)[nH]c6c5)c5c4C4CCC4C5)cc3)[nH]1)OCCO2)C(C)C (stereo partly shown)', 'HCV GT1a replicon', 0.429),
  ('COC(=O)N[C@H](C(=O)N1CCC[C@H]1c1ncc(-c2ccc(-c3ccc(-c4cnc([C@@H]5CCCN5C(=O)[C@@H](NC(=O)OC)C(C)C)[nH]4)c4c3C3CC(=O)CC3C4)cc2)[nH]1)C(C)C (stereo partly shown)', 'HCV GT1a replicon', 0.075),
  ('COC(=O)N[C@H](C(=O)N1CCC[C@H]1c1ncc(C#Cc2ccc(-c3ccc4nc([C@@H]5CCCN5C(=O)[C@@H](NC(=O)OC)C(C)C)[nH]c4c3)c3c2C2CCC2C3)[nH]1)C(C)C (stereo partly shown)', 'HCV GT1a replicon', 0.243),
  ('COC(=O)NC(C(=O)N1CCCC1c1ncc(-c2ccc(-c3ccc(-c4cnc(C5CCCN5C(=O)C(NC(=O)OC)C(C)C)[nH]4)c4c3C3CCC3C4)cc2)[nH]1)C(C)C (stereo not shown)', 'HCV GT1a replicon', 0.548),
  ('COC(=O)N[C@H](C(=O)N1CCC[C@H]1c1ncc(-c2ccc(-c3ccc(-c4cnc([C@@H]5CCCN5C(=O)[C@@H](NC(=O)OC)C(C)C)[nH]4)c4c3C3CCC3C4)cc2)[nH]1)C(C)C (stereo partly shown)', 'HCV GT1a replicon', 0.605),
  ('COC(=O)N[C@H](C(=O)N1CCC[C@H]1c1nc(-c2ccc(-c3ccc(-c4ccc5nc([C@@H]6CCCN6C(=O)[C@@H](NC(=O)OC)C(C)C)[nH]c5c4)c4c3C3CCC3C4)c3c2CCC3)c[nH]1)C(C)C (stereo partly shown)', 'HCV GT1a replicon', 0.233),
  ('COC(=O)N[C@H](C(=O)N1CCC[C@H]1c1ncc(-c2ccc(-c3ccc(-c4ccc5nc([C@@H]6CCCN6C(=O)[C@@H](NC(=O)OC)C(C)C)[nH]c5c4)c4c3C3CCC3C4)cc2)[nH]1)C(C)C (stereo partly shown)', 'HCV GT1a replicon', 0.06),
  ('COC(=O)N[C@H](C(=O)N1CC2(CC2)C[C@H]1c1ncc(-c2ccc(-c3ccc(-c4ccc5nc([C@@H]6CC7(CC7)CN6C(=O)[C@@H](NC(=O)OC)C(C)C)[nH]c5c4)c4c3C3CCC3C4)cc2)[nH]1)C(C)C (stereo partly shown)', 'HCV GT1a replicon', 0.062),
  ('COC(=O)N[C@H](C(=O)N1CCC[C@H]1c1ncc(-c2ccc(-c3ccc(-c4ccc5nc([C@@H]6CC7CC7N6C(=O)[C@@H](NC(=O)OC)C(C)C)[nH]c5c4)c4c3C3CCC3C4)cc2)[nH]1)C(C)C (stereo partly shown)', 'HCV GT1a replicon', 0.051),
  ('COC(=O)N[C@H](C(=O)N1CCC[C@H]1c1ncc(-c2ccc(-c3ccc(-c4cnc([C@@H]5CCCN5C(=O)[C@@H](NC(=O)OC)C(C)C)[nH]4)c4c3C3CCCC3C4C)cc2)[nH]1)C(C)C (stereo partly shown)', 'HCV GT1a replicon', 0.082),
  ('COC(=O)N[C@H](C(=O)N1C[C@@H](F)C[C@H]1c1ncc(-c2ccc(-c3ccc(-c4ccc5nc([C@@H]6C[C@H](F)CN6C(=O)[C@@H](NC(=O)OC)C(C)C)[nH]c5c4)c4c3C3CCC3C4)cc2)[nH]1)C(C)C (stereo partly shown)', 'HCV GT1a replicon', 0.035),
  ('COC(=O)NC(C(=O)N1CCCC1c1ncc(-c2ccc(-c3ccc(-c4ccc5nc(C6CCCN6C(=O)C(NC(=O)OC)C(C)C)[nH]c5c4)c4c3C3CCC3C4)cc2)[nH]1)C(C)C (stereo not shown)', 'HCV GT1a replicon', 0.058),
  ('COC(=O)N[C@H](C(=O)N1CC(C)=C[C@H]1c1ncc(-c2ccc(-c3ccc(-c4cnc([C@@H]5C=C(C)CN5C(=O)[C@@H](NC(=O)OC)C(C)C)[nH]4)c4c3C3CCC3C4)cc2)[nH]1)C(C)C (stereo partly shown)', 'HCV GT1a replicon', 0.068);

====

Test system: HCV GT1a replicon
experimentalDetails: HCV replicon assay (Huh-7 cells stably transfected with HCV GT1a replicon; luciferase or NEO gene qPCR readout)
Format: cell-based
measurementConditions: Hepatitis C virus, HCV 1a genotype replicon, 72 hours
pEC50: −log10 of the molar value.
assayReadout: pEC50

INSERT INTO measurements (compound, assayreadout, readoutnumber) VALUES
  ('COC(=O)N[C@H](C(=O)N1[C@@H]2CC[C@@H](C2)[C@H]1c1ncc(-c2ccc(-c3ccc(-c4ccc5nc([C@@H]6[C@H]7CC[C@H](C7)N6C(=O)[C@@H](NC(=O)OC)C(C)C)[nH]c5c4)c4c3C3CCC3C4)cc2)[nH]1)C(C)C (stereo partly shown)', 'pEC50', 9.66),
  ('CC(C)[C@H](NC(=O)Oc1ccccc1)C(=O)N1CC(C)(C)C[C@H]1c1ncc(-c2ccc(-c3ccc(-c4ccc5nc([C@@H]6CC(C)(C)CN6C(=O)[C@@H](NC(=O)Oc6ccccc6)C(C)C)[nH]c5c4)c4c3C3CCC3C4)cc2)[nH]1 (stereo partly shown)', 'pEC50', 8.59),
  ('COC(=O)N[C@H](C(=O)N1CCC[C@H]1C(=O)Nc1ccc(-c2ccc(-c3ccc4nc([C@@H]5CCCN5C(=O)[C@@H](NC(=O)OC)C(C)C)[nH]c4c3)c3c2CC2CCC32)cc1)C(C)C (stereo partly shown)', 'pEC50', 8.79),
  ('COC(=O)N[C@H](C(=O)N1CCC[C@H]1c1ncc(-c2ccc(-c3sc(-c4ccc5nc([C@@H]6CCCN6C(=O)[C@@H](NC(=O)OC)C(C)C)[nH]c5c4)c4c3C3CCC3C4)cc2)[nH]1)C(C)C (stereo partly shown)', 'pEC50', 9.08);
